Reported values of apparent Kd (screen) for individual entries
# Tested System: T1, TNFR1 (Homo sapiens, UniProt P19438)
# T1 chain: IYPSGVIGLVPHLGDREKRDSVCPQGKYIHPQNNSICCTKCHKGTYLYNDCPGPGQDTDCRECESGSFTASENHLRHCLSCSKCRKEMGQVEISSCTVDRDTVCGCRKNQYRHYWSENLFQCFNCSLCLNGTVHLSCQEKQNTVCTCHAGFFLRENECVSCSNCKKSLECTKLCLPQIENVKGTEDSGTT
# Assay Method Text: yeast display SC50
Readout Name: apparent Kd (screen) (nM)

V60A (designed binder) MTLQELLREEALRRAEAEAFRYALELLAEKFPEQKEYLLDLAEEIESQIRSLSGVDVEDARKFLDKEWAWVKELLAEHPAELAEVEAARAARLAELRAEVEAKVAA	0.653
A83Q (designed binder) MTLQELLREEALRRAEAEAFRYALELLAEKFPEQKEYLLDLAEEIESQIRSLSGVDVEDVRKFLDKEWAWVKELLAEHPAELQEVEAARAARLAELRAEVEAKVAA	0.446
